- protocol.details: yeast display, Sf9 membrane polyspecificity reagent, FACS + sequencing; frameworks hold sequencing errors
reported.endpoint: polyreactivity (PSR sort gate)

Worked examples follow.
- sequence.input: "QVQLVESGGGLVQAGGSLRLSCAASGSIFYYNAMGWYRQAPGKERELVAVISYRSGRTSYADSVKGRFTISRDNAKNTVYLQMNSLKPEDTAVYYCIAKPAVSFSRHYYRYDYWGQGTQVTVSS"
  polyreactivity (PSR sort gate): "high polyreactivity"
- sequence.input: "QVQLVESGGGLVQAGGSLRLSCAASGITFADNAMGWYRQAPGKERELVAANSWSGDRTFYADSVKGRFTISRDNAKNTVYLQMNSLKPEDTAVYYCARDSLQVFYPYASDDYWGQGTQVTVSS"
  polyreactivity (PSR sort gate): "low polyreactivity"
- sequence.input: "QVQLVESGGGLVQAGGSLRLSCAASGRTIYYYAMGWYRQAPGKEREFVAAISWHGGSTYYADSVKGRFTISRDNAKNNVYLQMNSLKPEDTAVYYCAADIYLRGFHYDYWGQGTQVTVSS"
  polyreactivity (PSR sort gate): "low polyreactivity"
- sequence.input: "QVQLVESGGGLVQAGGSLRLSCAASGSIFAAYTMGWYRQAPGKERELVAAISVSTVSTYYADSVKGRFTISRDNAKISVYLQMNSLKPEDTAVYYCNADSTTQDYDYWGQGTQVTVSS"
  polyreactivity (PSR sort gate): "low polyreactivity"
- sequence.input: "QVHLVESGGGLVLAGGSLRLSCAASGSTFIWNAMGWYRQAPGKERELVAAIRRGSSTNYADSVKGRFTISRDNAKNTVYLQMNSLYPEDTAVYYCAKKPVTTDVSSETFFLEMDYWGQGTQVTVSS"
  polyreactivity (PSR sort gate): "low polyreactivity"
- sequence.input: "QVQLVESGGGLVQAGGSLRLSCAASGRTFSGYAMGWYRPAPGKERELVATISSGGRTNYADSVKGRFTISRDNAKNTVYLQMISLKPEDTAVYYCNVRWWGRGPWSDYWGQGTQVTVSS"
  polyreactivity (PSR sort gate): "high polyreactivity"

Query string: // polyreactivity (PSR sort gate) lookup, key: QVQLVESGGGLFQAGGSLRLSCAASGSTLVGNAMGWYRQAPGKERELVATISSSGGSTYYADSVKGRFTISRDNAKNTVYLQMNSLKPEDTGVYYCAARIQWPTWSLYYYWGQGTQVTVSS
Result string: high polyreactivity

Query string: // polyreactivity (PSR sort gate) lookup, key: QVQLVESGGGLVQAGGSLRLSCAASGFTFVYYGMGWYRQAPGKERELVADISSGGNTYYADSVKGRFTISRDNAKNTVYLQMNSLKPEETAVYYCNKDARDEEGSSRTYDYWGQGTQVTVSS
Result string: low polyreactivity

Query string: // polyreactivity (PSR sort gate) lookup, key: HVQLEESGVGLVQAGGSLRVSCAASGSTFGYYRMGGYRQAPGKERELVAAISWRGGSTYYADSVKGRFTISRDNAMNTVYCQMNSLKPEDTAVYYCAAPVGNYGSIDYWGQVTQVTVSS
Result string: low polyreactivity

Query string: // polyreactivity (PSR sort gate) lookup, key: QVQLVESGGGLVQAGGSLRLSCAASGSTFRTNAMGWYRQAPGKERELVARIRYSVGSTYYADSVKGRFTISRDNAKNTVYLQMNSLKPEDTAVYYCAAENQRVGTFREHDSWGQGTQVTVSS
Result string: low polyreactivity

Query string: // polyreactivity (PSR sort gate) lookup, key: QVQLVESGGCLVQAGGSLRLSCSASGSIFNYNDMGWYRQAPGKERELVAAIDSSGTSTYYADSVKGRYTISRDNSKNNVYLQMTSLKPEDTAVYYCNADSSLGFGYWGQGTQVTVSS
Result string: low polyreactivity
